# maps each entry to its growth at 10 µM
tested on: CCRF-CEM; test: Growth inhibition of human CCRF-CEM cells assessed as cell growth at 10 uM after 48 hrs by sulforhodamine B assay relative to control; format: functional; conditions: read-out: Activity
MEASUREMENT_NAME: growth at 10 µM (%)

1. COc1ccc(Cn2cc(C(=O)N/N=C3/C(=O)Nc4ccc(F)cc43)nn2)cc1: 95
2. COc1ccc(Cn2cc(C(=O)N/N=C3/C(=O)Nc4ccc(Cl)cc43)nn2)cc1: 94.7
3. COc1ccc(Cn2cc(C(=O)N/N=C3/C(=O)Nc4ccc(C)cc43)nn2)cc1: 98.1
4. COc1ccc(Cn2cc(C(=O)N/N=C3/C(=O)Nc4ccccc43)nn2)cc1: 104
5. COc1ccc(Cn2cc(C(=O)N/N=C3/C(=O)Nc4ccc(F)c(Cl)c43)nn2)cc1: 109
6. COc1ccc(Cn2cc(C(=O)N/N=C3/C(=O)Nc4c(Cl)cccc43)nn2)cc1: 106
7. COc1ccc(Cn2cc(C(=O)N/N=C3/C(=O)Nc4c(F)cccc43)nn2)cc1: 90.2
8. COc1ccc(Cn2cc(C(=O)N/N=C3/C(=O)Nc4c(C)cccc43)nn2)cc1: 82.8
9. COc1ccc(Cn2cc(C(=O)N/N=C3/C(=O)Nc4ccc(Br)cc43)nn2)cc1: 92.5
